# measured on: Catalase from human erythrocytes (EC 1.11.1.6, CAT) (Homo sapiens)
# Construct: Catalase from human erythrocytes (EC 1.11.1.6, CAT); purchased Sigma–Aldrich (Poznań, Poland); host or cells: human erythrocytes (natural source)
# procedure text: Catalase (CAT) inhibition kinetics by capillary electrophoresis (hydrogen peroxide/guaiacol/tetraguaiacol)
# Type: biochemical
# experimental parameters: inhibitor 20.00 mM
property label: Vmax (mM/min)
Write it as a number; the unit mM/min goes unstated.

The following compounds have reported results that may help.
Incoming: Consider the compound CCC12C(=O)C(CC)(C(c3ccccc3)=C1c1ccccc1)C1C(=O)N(CC(O)CN(C)C)C(=O)C12 (stereo not shown) and give its measured Vmax.
Outgoing: 1.24

Incoming: Item under review: CCC12C(=O)C(CC)(C(c3ccccc3)=C1c1ccccc1)C1C(=O)N(CC(O)CNC(C)C)C(=O)C12 (stereo not shown) . Reported Vmax?
Outgoing: 1.25

Incoming: Can you share its Vmax? I mean this compound: CC(C)NCC(O)CN1C(=O)C2C(C1=O)C1(C)C(=O)C2(C)C(c2ccccc2)=C1c1ccccc1 (stereo not shown)
Outgoing: 1.25

Now consider a different compound.
Incoming: What measured Vmax goes with CN(C)CC(O)CN1C(=O)C2C(C1=O)C1(C)C(=O)C2(C)C(c2ccccc2)=C1c1ccccc1 (stereo not shown) ?
Outgoing: 1.26

###

# measured on: Catalase from human erythrocytes (EC 1.11.1.6, CAT) (Homo sapiens)
# Construct: Catalase from human erythrocytes (EC 1.11.1.6, CAT); purchased Sigma–Aldrich (Poznań, Poland); host or cells: human erythrocytes (natural source)
# procedure text: Catalase (CAT) inhibition kinetics by capillary electrophoresis (hydrogen peroxide/guaiacol/tetraguaiacol)
# Type: biochemical
# experimental parameters: inhibitor 10.00 mM; n = 6
Measured Slope (slope angle of Lineweaver–Burk line) values are reported for all entries that follow.
Output spec: single numeric token, no unit.

Incoming: Give the measured Slope (slope angle of Lineweaver–Burk line) of CCC12C(=O)C(CC)(C(c3ccccc3)=C1c1ccccc1)C1C(=O)N(CC(O)CNC(C)C)C(=O)C12 (stereo not shown) [Compound (I)] .
Outgoing: 27.33

###

# measured on: Catalase from human erythrocytes (EC 1.11.1.6, CAT) (Homo sapiens, UniProt P04040)
# Construct: Catalase from human erythrocytes (EC 1.11.1.6, CAT); purchased Sigma–Aldrich (Poznań, Poland); host or cells: human erythrocytes (natural source)
# procedure text: Catalase (CAT) inhibition kinetics by capillary electrophoresis (hydrogen peroxide/guaiacol/tetraguaiacol)
# Type: biochemical
# experimental parameters: inhibitor 20.00 mM; n = 6
Measured Slope (slope angle of Lineweaver–Burk line) by item
Just the number, please.

Incoming: Query Slope (slope angle of Lineweaver–Burk line) on Catalase from human erythrocytes (EC 1.11.1.6, CAT) (Homo sapiens, UniProt P04040) for CN(C)CC(O)CN1C(=O)C2C(C1=O)C1(C)C(=O)C2(C)C(c2ccccc2)=C1c1ccccc1 (stereo not shown)
Outgoing: 29.27

Incoming: API: value(readout= Slope (slope angle of Lineweaver–Burk line), system= Catalase from human erythrocytes (EC 1.11.1.6, CAT) (Homo sapiens, UniProt P04040), query= CC(C)NCC(O)CN1C(=O)C2C(C1=O)C1(C)C(=O)C2(C)C(c2ccccc2)=C1c1ccccc1 (stereo not shown) )
Outgoing: 32.68

Incoming: Given the entry CCC12C(=O)C(CC)(C(c3ccccc3)=C1c1ccccc1)C1C(=O)N(CC(O)CN(C)C)C(=O)C12 (stereo not shown) , what Slope (slope angle of Lineweaver–Burk line) was observed with Catalase from human erythrocytes (EC 1.11.1.6, CAT) (Homo sapiens, UniProt P04040)?
Outgoing: 27.06

More entries:
Incoming: Reported Slope (slope angle of Lineweaver–Burk line) for Catalase from human erythrocytes (EC 1.11.1.6, CAT) (Homo sapiens, UniProt P04040), given CCC12C(=O)C(CC)(C(c3ccccc3)=C1c1ccccc1)C1C(=O)N(CC(O)CNC(C)C)C(=O)C12 (stereo not shown) ?
Outgoing: 30.75

###

# Slope (slope angle of Lineweaver–Burk line) listing for each entry below
# measured on: Catalase from human erythrocytes (EC 1.11.1.6, CAT) (Homo sapiens, UniProt P04040)
# Construct: Catalase from human erythrocytes (EC 1.11.1.6, CAT); purchased Sigma–Aldrich (Poznań, Poland); host or cells: human erythrocytes (natural source)
# procedure text: Catalase (CAT) inhibition kinetics by capillary electrophoresis (hydrogen peroxide/guaiacol/tetraguaiacol)
# Type: biochemical
# experimental parameters: inhibitor 2.50 mM; without inhibitor 23.31 ± 0.04; n = 6
Just the number, please.

Take a look at these entries with their results.
Incoming: Entry under review: CC(C)NCC(O)CN1C(=O)C2C(C1=O)C1(C)C(=O)C2(C)C(c2ccccc2)=C1c1ccccc1 (stereo not shown) . Reported Slope (slope angle of Lineweaver–Burk line)?
Outgoing: 25.09

Incoming: Data request, read-out Slope (slope angle of Lineweaver–Burk line), for CCC12C(=O)C(CC)(C(c3ccccc3)=C1c1ccccc1)C1C(=O)N(CC(O)CNC(C)C)C(=O)C12 (stereo not shown)
Outgoing: 24.72

Incoming: What value of Slope (slope angle of Lineweaver–Burk line) has been reported for the following molecule? CCC12C(=O)C(CC)(C(c3ccccc3)=C1c1ccccc1)C1C(=O)N(CC(O)CN(C)C)C(=O)C12 (stereo not shown)
Outgoing: 23.70

Now let's try a different one.
Incoming: Recorded Slope (slope angle of Lineweaver–Burk line) for CN(C)CC(O)CN1C(=O)C2C(C1=O)C1(C)C(=O)C2(C)C(c2ccccc2)=C1c1ccccc1 (stereo not shown) , please?
Outgoing: 24.33

###

# measured on: Catalase from human erythrocytes (EC 1.11.1.6, CAT) (Homo sapiens, UniProt P04040)
# Construct: Catalase from human erythrocytes (EC 1.11.1.6, CAT); purchased Sigma–Aldrich (Poznań, Poland); host or cells: human erythrocytes (natural source)
# procedure text: Catalase (CAT) inhibition kinetics by capillary electrophoresis (hydrogen peroxide/guaiacol/tetraguaiacol)
# Type: biochemical
# experimental parameters: inhibitor 5.00 mM
# Source text: In this study, we used the capillary electrophoresis (CE) method developed by us to determine the tetraguaiacol complex as a product of the catalase-catalyzed reaction (CAT) (Table 1) in the presence of the enzyme, hydrogen peroxide (HPER) (as a substrate), guaiacol (GCOL) and inhibitors (I), (II), (III) and (IV) (Figure 2). […]
property label: Vmax

These solved cases illustrate the format of a correct answer.
Incoming: Param readout= Vmax; system= Catalase from human erythrocytes (EC 1.11.1.6, CAT) (Homo sapiens, UniProt P04040); entry= CC(C)NCC(O)CN1C(=O)C2C(C1=O)C1(C)C(=O)C2(C)C(c2ccccc2)=C1c1ccccc1 (stereo not shown) ; returns value.
Outgoing: 1.25 ± 0.08 mM/min

Incoming: Recall the recorded Vmax for CN(C)CC(O)CN1C(=O)C2C(C1=O)C1(C)C(=O)C2(C)C(c2ccccc2)=C1c1ccccc1 (stereo not shown) with Catalase from human erythrocytes (EC 1.11.1.6, CAT) (Homo sapiens, UniProt P04040) and state it.
Outgoing: 1.24 ± 0.06 mM/min

Incoming: Under Catalase from human erythrocytes (EC 1.11.1.6, CAT) (Homo sapiens, UniProt P04040): Vmax value of CCC12C(=O)C(CC)(C(c3ccccc3)=C1c1ccccc1)C1C(=O)N(CC(O)CNC(C)C)C(=O)C12 (stereo not shown) ?
Outgoing: 1.24 ± 0.07 mM/min

Please turn your attention to the following entry.
Incoming: Find Vmax (Catalase from human erythrocytes (EC 1.11.1.6, CAT) (Homo sapiens, UniProt P04040)) for the entry CCC12C(=O)C(CC)(C(c3ccccc3)=C1c1ccccc1)C1C(=O)N(CC(O)CN(C)C)C(=O)C12 (stereo not shown)
Outgoing: 1.24 ± 0.06 mM/min

###

The following compounds are shown together with reported Slope (slope angle of Lineweaver–Burk line) values.
# measured on: Catalase from human erythrocytes (EC 1.11.1.6, CAT) (Homo sapiens)
# Construct: Catalase from human erythrocytes (EC 1.11.1.6, CAT); purchased Sigma–Aldrich (Poznań, Poland); host or cells: human erythrocytes (natural source)
# Sequence (P04040 2-527 limits assumed): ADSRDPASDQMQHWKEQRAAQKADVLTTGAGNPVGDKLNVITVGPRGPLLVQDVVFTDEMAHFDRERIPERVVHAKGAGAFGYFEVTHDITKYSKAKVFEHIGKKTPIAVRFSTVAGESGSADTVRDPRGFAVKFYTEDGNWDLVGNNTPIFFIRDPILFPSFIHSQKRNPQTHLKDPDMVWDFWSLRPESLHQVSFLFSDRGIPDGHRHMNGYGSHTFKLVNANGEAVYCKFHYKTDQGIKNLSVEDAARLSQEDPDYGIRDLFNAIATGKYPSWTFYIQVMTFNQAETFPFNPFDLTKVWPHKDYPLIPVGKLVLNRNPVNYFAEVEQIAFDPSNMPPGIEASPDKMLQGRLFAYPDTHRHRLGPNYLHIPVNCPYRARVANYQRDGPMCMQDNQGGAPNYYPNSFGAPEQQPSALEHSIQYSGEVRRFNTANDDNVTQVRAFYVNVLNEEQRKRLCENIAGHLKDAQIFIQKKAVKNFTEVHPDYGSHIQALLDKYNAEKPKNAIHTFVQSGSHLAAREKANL
# procedure text: Catalase (CAT) inhibition kinetics by capillary electrophoresis (hydrogen peroxide/guaiacol/tetraguaiacol)
# Assay type: biochemical
# experimental parameters: inhibitor 5.00 mM; n = 6
Format: numeric value only, no unit, no commentary.

# example entries with known answers
Incoming: What does the data say about its Slope (slope angle of Lineweaver–Burk line)? Entry: CC(C)NCC(O)CN1C(=O)C2C(C1=O)C1(C)C(=O)C2(C)C(c2ccccc2)=C1c1ccccc1 (stereo not shown)
Outgoing: 25.84

Incoming: Record request: Slope (slope angle of Lineweaver–Burk line) value, item CN(C)CC(O)CN1C(=O)C2C(C1=O)C1(C)C(=O)C2(C)C(c2ccccc2)=C1c1ccccc1 (stereo not shown)
Outgoing: 25.00

Incoming: I have this compound here, CCC12C(=O)C(CC)(C(c3ccccc3)=C1c1ccccc1)C1C(=O)N(CC(O)CNC(C)C)C(=O)C12 (stereo not shown) , and I need its recorded Slope (slope angle of Lineweaver–Burk line).
Outgoing: 25.43

Please look at the following compound next.
Incoming: Tell me the measured Slope (slope angle of Lineweaver–Burk line) of CCC12C(=O)C(CC)(C(c3ccccc3)=C1c1ccccc1)C1C(=O)N(CC(O)CN(C)C)C(=O)C12 (stereo not shown) , please.
Outgoing: 24.24

Source of measurements: paper PMC9266750
